Would you kindly list IC50 for each of these compounds?
molecular target: 15-PGDH/HPGD (Homo sapiens (Human), UniProt P15428); assay: hPGDH inhibitor screening biochemical assay; conditions: read-out: hPGDH: Average IC50
Sequence (P15428 whole entry): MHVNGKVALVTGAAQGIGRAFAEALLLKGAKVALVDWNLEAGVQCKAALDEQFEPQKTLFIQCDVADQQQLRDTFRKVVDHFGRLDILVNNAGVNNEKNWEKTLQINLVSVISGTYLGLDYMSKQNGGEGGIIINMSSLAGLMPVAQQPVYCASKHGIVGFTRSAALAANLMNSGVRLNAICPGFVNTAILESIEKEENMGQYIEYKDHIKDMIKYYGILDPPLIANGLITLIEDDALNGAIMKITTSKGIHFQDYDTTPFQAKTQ

Bench note: what IC50 did N#Cc1ccc(-n2ccc3cc(C(=O)N4CCC(F)(F)CC4)cnc32)cc1 [MF-DH-439] show? < 100 nM

Also need CC(C)(O)c1cccc(-n2ccc3cc(C(=O)N4CCCCC4)cnc32)c1 [MF-DH-375] , thanks. 100 to 1000 nM

Also need COc1ccc(-n2ccc3cc(C(=O)N4[C@H](C)CCC[C@@H]4C)cnc32)cc1 [MF-DH-328] , thanks. 100 to 1000 nM

Also need O=C(c1cnc2c(c1)c(Cl)cn2-c1ccc2c(c1)OC(F)(F)O2)N1CCC(F)CC1 [MF-DH-250] , thanks. < 100 nM

Also need COc1ccc(-n2c(C)nc3cc(C(=O)N4CCC(F)CC4)cnc32)cc1 [MF-DH-176] , thanks. 100 to 1000 nM

Also need O=C(c1ccc(CS(=O)(=O)c2ccccc2Cl)cc1)N1CCCCC1 [MF-PGDH-040] , thanks. 100 to 1000 nM

Also need CC(C)(C)CNC(=O)c1cncc(-n2ccc3cc(C(=O)N4CCC(F)(F)CC4)cnc32)c1 [MF-DH-405] , thanks. < 100 nM

Also need C[C@@H]1C[C@H](C)CN(C(=O)c2cnc3c(ccn3-c3ccc(C(N)=O)cc3)c2)C1 [MF-DH-395] , thanks. < 100 nM

----------
test: Solubility at pH 7.4; format: physicochemical; conditions: pH 7.4, aqueous buffer; read-out: Solubility: Solubility at pH 7.4
Would you kindly list solubility for each of these molecules?
// note: answer is a bare numeric in µM

Bench note: what solubility did C[C@@H]1C[C@H](C)CN(C(=O)c2cnc3c(ccn3-c3ccc(C(N)=O)cc3)c2)C1 [MF-DH-395] show? 80

Also need O=C(Nc1cncc(-n2ccc3cc(C(=O)N4CCC(F)(F)CC4)cnc32)c1)c1ccno1 [MF-DH-458] , thanks. 62

Also need O=C(O)c1ccc(-n2ccc3cc(C(=O)N4CCC(F)(F)CC4)cnc32)cc1 [MF-DH-424] , thanks. 156

Also need O=C(c1ccc2c(cnn2-c2cncc(Cl)c2)c1)N1CCCCC1 [MF-DH-292] , thanks. 69

Also need Cc1c(C(=O)N2CCC(F)CC2)cnc2c1ccn2-c1ccc(C(N)=O)cc1 [MF-DH-380] , thanks. 75

----------
experiment: Solubility at pH 7.4; format: physicochemical; details: aqueous buffer; pH 7.4; phenyl core; read-out: Solubility at pH 7.4
Quick rule: solubility of at least 40 µM means 1, below that means 0.

# bool: solubility of O=C(c1ccc(COc2ccccc2Br)cc1)N1CCCCC1 [drawing 233] >= 40 µM 0

Also need O=C(c1ccc(COc2ccccc2Cl)cc1)N1CCCCC1 [drawing 230] , thanks. 0

Also need COc1ccccc1C(=O)Nc1ccc(C(=O)N2CCCCC2)cc1 [drawing 231] , thanks. 0

Also need COc1ccccc1C(=O)N(C)c1ccc(C(=O)N2CCCCC2)cc1 [drawing 229] , thanks. 1

Also need COc1ccccc1NC(=O)c1ccc(C(=O)N2CCCCC2)cc1 [drawing 232] , thanks. 1

----------
Would you kindly list IC50 for each of these compounds?
target: 15-PGDH/HPGD (Homo sapiens (Human)); assay: hPGDH inhibitor screening biochemical assay; conditions: read-out: hPGDH: Average IC50

Bench note: what IC50 did COc1ccccc1-c1cn(C)c2cc(C(=O)N3CCC(F)CC3)cnc12 [MF-DH-200] show? ≥ 1000 nM

Also need NS(=O)(=O)c1cccc(-n2ccc3cc(C(=O)N4CCC(F)(F)CC4)cnc32)c1 [MF-DH-495] , thanks. < 100 nM

Also need N#Cc1cc(-n2ccc3cc(C(=O)N4CCC(F)(F)CC4)cnc32)cnc1O [MF-DH-502] , thanks. < 100 nM

Also need COc1cc(C(=O)N2CCC(F)CC2)ccc1COc1ccccc1Cl [MF-DH-118] , thanks. 100 to 1000 nM

Also need COc1ccc(-n2cnc3cc(C(=O)N4CCC(F)(F)CC4)cnc32)cc1 [MF-PGDH-079] , thanks. < 100 nM

Also need O=C(Nc1ccno1)c1ccc(-n2ccc3cc(C(=O)N4CCC(F)(F)CC4)cnc32)cn1 , thanks. < 100 nM

Also need NC(=O)c1ccc(-n2cnc3cc(C(=O)N4CCC(F)(F)CC4)cnc32)cc1 [MF-DH-464] , thanks. < 100 nM

Also need NC(=O)[C@@H]1CCCN1C(=O)c1ccc(-n2ccc3cc(C(=O)N4CCC(F)(F)CC4)cnc32)cc1 [MF-DH-450] , thanks. < 100 nM

Also need Nc1cncc(-n2ccc3cc(C(=O)N4CCCCC4)cnc32)c1 [MF-DH-322] , thanks. < 100 nM

Also need O=C1CCN(C(=O)c2ccc3c(c2)ncn3-c2cccc(Cl)c2)C1 [MF-PGDH-090] , thanks. ≥ 1000 nM

Also need O=C(c1cnc2c(c1)ncn2-c1ccc(OC(F)(F)F)cc1)N1CCC(F)CC1 [MF-DH-218] , thanks. 100 to 1000 nM

Also need O=C(c1cnc2c(c1)ncn2-c1ccc(OC(F)F)cc1)N1CCCCC1 [MF-DH-223] , thanks. < 100 nM

Also need Cn1cc(-n2ccc3cc(C(=O)N4CCCCC4)cnc32)cn1 [MF-PGDH-076] , thanks. < 100 nM

Also need O=C(c1ccc2c(c1)ncn2-c1cccc(Cl)c1)N1CCC(Cl)C1 (centres unmarked) [MF-PGDH-049] , thanks. < 100 nM

Also need CS(=O)(=O)NCCNC(=O)c1cccc(-n2ccc3cc(C(=O)N4CCC(F)(F)CC4)cnc32)c1 [MF-DH-480] , thanks. < 100 nM

Also need O=C(c1cnc2c(ccn2-c2cccc(-c3nn[nH]n3)c2)c1)N1CCC(F)(F)CC1 [MF-DH-515] , thanks. < 100 nM

Also need O=C(NCCO)c1cccc(-n2ccc3cc(C(=O)N4CCC(F)(F)CC4)cnc32)c1 [MF-DH-468] , thanks. < 100 nM

Also need CC(C)(O)c1ccc(-n2ccc3cc(C(=O)N4CCCCC4)cnc32)cc1 [MF-DH-371] , thanks. < 100 nM

Also need O=C(Nc1ccno1)c1cncc(-n2ccc3cc(C(=O)N4CCC(F)(F)CC4)cnc32)c1 [MF-DH-459] , thanks. < 100 nM

Also need CS(=O)(=O)n1ccc2cc(C(=O)N3CCCCC3)cnc21 [MF-DH-311] , thanks. ≥ 1000 nM

Also need O=C(c1ccc(-n2ccc3cc(C(=O)N4CCC(F)(F)CC4)cnc32)cc1)N(CCO)CCO [MF-DH-451] , thanks. < 100 nM

Also need N#Cc1ccc(-n2c(CCC(N)=O)cc3cc(C(=O)N4CCC(F)(F)CC4)cnc32)cc1 [MF-DH-446] , thanks. 100 to 1000 nM

Also need O=C(c1ccc2c(c1)ncn2-c1ccc2c(c1)OCO2)N1CCCCC1 [MF-PGDH-062] , thanks. < 100 nM

Also need NC(=O)c1ncc(-n2ccc3cc(C(=O)N4CCCCC4)cnc32)cn1 [MF-DH-384] , thanks. < 100 nM

Also need O=C(c1ccc(COc2ccccc2Cl)cn1)N1CCC(F)CC1 [MF-DH-121] , thanks. ≥ 1000 nM

Also need O=C(c1cnc2c(ccn2-c2cccc(C(=O)N3CCS(=O)(=O)C3)c2)c1)N1CCC(F)(F)CC1 [MF-DH-497] , thanks. < 100 nM

Also need COc1ccc(-n2ccc3cc(C(=O)N4CCCCC4)cnc32)cn1 [MF-DH-323] , thanks. < 100 nM

Also need N#Cc1ccc(-n2ccc3cc(C(=O)N4CCCCC4)cnc32)cn1 [MF-DH-389] , thanks. < 100 nM

Also need O=C(c1ccc2c(cnn2-c2cncc(Cl)c2)c1)N1CCCCC1 [MF-DH-292] , thanks. < 100 nM

Also need CS(=O)(=O)c1cccc(-n2ccc3cc(C(=O)N4CCCCC4)cnc32)c1 [MF-DH-309] , thanks. < 100 nM

Also need Cc1cncc(-n2cc(Cl)c3cc(C(=O)N4CCC(F)CC4)cnc32)n1 [MF-DH-166] , thanks. < 100 nM

Also need Cc1nc2cc(C(=O)N3CCCCC3)ccc2n1-c1cccc(Cl)c1 [MF-PGDH-091] , thanks. < 100 nM

Also need CC(C)(C#Cc1ccc(-n2ccc3cc(C(=O)N4CCC(F)(F)CC4)cnc32)cn1)S(C)(=O)=O [MF-DH-465] , thanks. 100 to 1000 nM

Also need COc1ccc(-n2c(C)nc3cc(C(=O)N4CCCCC4)cnc32)cc1 [MF-DH-205] , thanks. < 100 nM

Also need CC1(C)CN(C(=O)c2ccc3c(c2)ncn3-c2cccc(Cl)c2)C1 [MF-PGDH-105] , thanks. 100 to 1000 nM
